Source listed as PubChem BioAssay AID686978.

Assay: qHTS for Inhibitors of human tyrosyl-DNA phosphodiesterase 1 (TDP1): qHTS in cells in absence of CPT; further: nearly all actives have a fitted effect of over 55% in size
Conditions: DT40 Tdp1-/- hTDP1 cells, no CPT, ATP luminescence, 48 h
Screen size: about 420,000 compounds; about 64,000 (15%) were called active. Not shown: some 27% with an inconclusive outcome. The call rests on the fitted dose curve; in most records, active means well fitted inhibition curve with a large enough effect; inconclusive means small, poorly fitted or top-dose-only effect; inactive means flat fitted curve, though single readings scatter. Only a sample is shown.
Labels: Yes for active, No for inactive

| compound | className |
| --- | --- |
| CC(C)CN(C(=O)c1cccc(S(=O)(=O)N2CCCCC2)c1)C1CCS(=O)(=O)C1 (stereo not given) | No |
| CCNC(=S)N1CCN(CCN=CC2=C(O)CC(C)(C)CC2=O)CC1 | No |
| NC(=O)CCCC1=NS(=O)(=O)c2ccccc2N1 | No |
| CCN(CC)c1ccc(/C=N/NC(=O)CNC(=O)c2cccs2)cc1 | No |
| Cn1c(=O)c2c(SCC(=O)NCC3CCCO3)nc(CC(C)(C)C)nc2n(C)c1=O (stereo not given) | No |
| COc1ccccc1NC(=O)CSc1nnc(Cn2nnc(-c3ccccc3)n2)n1-c1ccccc1 | Yes |
| COc1ccccc1NC(=O)CSc1nnc(Cc2cccn2C)n1-c1ccc(F)cc1 | No |
| CCOC(=O)C(Cc1ccccc1)NC(=O)CCc1c(C)nc2c(c(C)nn2-c2ccc(C)c(C)c2)c1C (stereo not given) | No |
| COC(=O)c1ccc(NC(=O)CCc2c(C)nc3c(c(C)nn3-c3ccc(C)cc3)c2C)cc1 | Yes |
| O=C(COc1ccccc1F)OCc1cc(=O)n2nc(C3CCCCC3)sc2n1 | No |

---

Experiment: qHTS for Inhibitors of human tyrosyl-DNA phosphodiesterase 1 (TDP1): qHTS in cells in absence of CPT; further: nearly all actives have a fitted effect of over 55% in size
Details: DT40 Tdp1-/- hTDP1 cells, no CPT, ATP luminescence, 48 h
About 64,000 (15%) of roughly 420,000 compounds were called active. Another 27% or so got no clear call; they are omitted. Calls follow the shape of the dose curve; as a rule, active = well fitted inhibition curve with a large enough effect; inconclusive = small, poorly fitted or top-dose-only effect; inactive = flat fitted curve, though single readings scatter. Only a sample is shown.
Labels: TRUE = active, FALSE = inactive

| molecule | className |
| --- | --- |
| COc1ccc(NC(=O)Nc2cccc(-c3noc(C)n3)c2)cc1 | FALSE |
| Brc1ccc(-c2nn[nH]n2)cc1 | FALSE |
| COc1ccc(NC(=O)C2(C)Cc3c(-c4cccc(NC(C)=O)c4)ccnc3O2)cc1 (stereo not given) | TRUE |
| CC(=O)Nc1cccc(-c2ccnc3c2CC(C)(C(=O)NCc2ccco2)O3)c1 (stereo not given) | TRUE |
| C=C1C([C@@]2(C)C(OC(C)=O)CC(=O)O[C@@](C)(COC(C)=O)C2CC(=O)OC)C(OC=O)C(OC(=O)C(O)C(C)CC)[C@]2(C)C(c3ccoc3)CC(=O)C12O (stereo not given in full) | TRUE |
| CCCC(NS(=O)(=O)c1ccc(OC)cc1)C(=O)O (stereo not given) | FALSE |
| CCCCN1C(=O)C(CC(=O)NCc2cccs2)CC(C(=O)N2CCCCCC2)=C1C (stereo not given) | FALSE |
| CC1(C)CC(=O)c2cc(C(=O)NCc3ccccc3)c(=O)[nH]c2C1 | FALSE |
| O=S1(=O)CCN(Cc2ccccc2Cl)CC1 | FALSE |
| O=S(=O)(c1ccccc1)N1CN(Cc2ccc(F)cc2)c2nc3ccccc3nc21 | FALSE |

---

Test: qHTS for Inhibitors of human tyrosyl-DNA phosphodiesterase 1 (TDP1): qHTS in cells in absence of CPT; further: nearly all actives have a fitted effect of over 55% in size
Settings: DT40 Tdp1-/- hTDP1 cells, no CPT, ATP luminescence, 48 h
Screen size: about 420,000 compounds; about 64,000 (15%) were called active. Inconclusive results (about 27%) are left out. Calls come from the whole dose curve; as a rule, active = well fitted inhibition curve with a large enough effect; inconclusive = small, poorly fitted or top-dose-only effect; inactive = flat fitted curve, though single readings scatter. Not all results are given here.
Labels: yes (1) for active, no (0) for inactive

| compound | className |
| --- | --- |
| Cc1cc(-c2ccnc(-n3ncc(C(=O)NC(C)(C)CO)c3C3CC3)n2)c(C)s1 | yes (1) |
| CNC(=O)NCCN1CCCC1=O | no (0) |
| COc1cc(C(=O)N2CCOCC2)cc(OC)c1OC | no (0) |
| CCC1Oc2ccccc2N(CC(=O)NCCCN2CCN(CC)CC2)C1=O (stereo unspecified) | no (0) |
| CC(C)OCCCNC(=O)CN1C(=O)/C(=C/c2ccccc2F)Oc2ccccc21 | yes (1) |
| CC(Oc1ccc2ccccc2c1)C(=O)NNC(=S)NC(=O)c1ccco1 (stereo unspecified) | yes (1) |

---

Test: qHTS for Inhibitors of human tyrosyl-DNA phosphodiesterase 1 (TDP1): qHTS in cells in absence of CPT; further: nearly all actives have a fitted effect of over 55% in size; further: potency means the concentration at half of the fitted maximal effect
Conditions: DT40 Tdp1-/- hTDP1 cells, no CPT, ATP luminescence, 48 h
About 64,000 (15%) of roughly 420,000 compounds were called active. Not shown: some 27% with an inconclusive outcome. The list is a sample of the results.
testReadout: Potency

| compound | val |
| --- | --- |
| Cc1ccc(S(=O)(=O)N(C)C)cc1NC(=O)C1Cc2ccccc2CN1C(=O)c1ccco1 (stereo not given) | inactive |
| CCOc1ccc(-n2c(O)c(/C=N/Nc3nc(C)cc(C)n3)c3ccccc3c2=O)cc1 | 3.26 µM (active) |
| CCOC(=O)N1CCC(NC(=O)CCc2cn(C)c3ccccc23)CC1 | inactive |
| CC1CCCN(C(=O)Cn2c(=O)oc3cc(S(=O)(=O)N4CCCCC4C)ccc32)C1 (stereo not given) | inactive |
| Cc1ccc(C)c(NC(=O)C2Cc3ccccc3CN2C(=O)OCc2ccccc2)c1 (stereo not given) | 20.6 µM (active) |
| Cc1ccccc1Nc1nnc(C)c(=O)[nH]1 | inactive |
| COc1ccc(-n2c(O)c(C=NCC(c3ccco3)N3CCCC3)c3ccccc3c2=O)cc1OC (stereo not given) | inactive |
| CCN(CC)CCCN=Cc1c(O)n(-c2ccc(C)cc2)c(=O)c2ccccc12 | inactive |
| Cc1nnc(N/N=C/c2cccs2)[nH]c1=O | inactive |
| CC(C)CCNC(=O)Cn1c(=O)oc2cc(S(=O)(=O)N3CC(C)CC(C)C3)ccc21 (stereo not given) | 16.4 µM (active) |

---

Assay: qHTS for Inhibitors of human tyrosyl-DNA phosphodiesterase 1 (TDP1): qHTS in cells in absence of CPT; further: nearly all actives have a fitted effect of over 55% in size; further: potency means the concentration at half of the fitted maximal effect
Details: DT40 Tdp1-/- hTDP1 cells, no CPT, ATP luminescence, 48 h
Description: Human tyrosyl-DNA phosphodiesterase 1 (TDP1) is a novel repair gene, and we propose to use it as a new target for anticancer drug development. […] For the primary screen, Tdp1-/-;hTDP1 cells will be exposed to small molecules in the presence or absence of CPT, and their growth kinetics will be evaluated after 48 hours by measuring ATP activity. […] The hit compounds will then be evaluated in the presence or absence of CPT using Tdp1-/- cells. […]
The whole screen tested about 420,000 compounds, of which about 64,000 (15%) were called active. Inconclusive results (about 27%) are left out. A selection follows.
testReadout: Potency

| compound | val |
| --- | --- |
| O=C(CSc1nnc2n1CCCN2)c1ccccc1 | inactive |
| O=C(CCS(=O)(=O)Cc1ccccc1F)NCCCN1CCCCC1 | inactive |
| CC(=O)c1ccc(NC(=O)CCc2nnc3ccc(NCc4ccco4)nn23)cc1 | inactive |
| S=C(NCCc1ccccc1)NCC1CCCO1 (centres undefined) | 23.1 µM (active) |
| N#CCCN1CCN(S(=O)(=O)c2ccc(S(=O)(=O)NC3CCCCC3)cc2)CC1 | inactive |
| Cc1ccc2c(C)c(C(=O)N3CCC(N4CCC(C(=O)NC5CC5)CC4)CC3)oc2c1 | inactive |
| CC(C)Nc1ccc(-n2nc3ccccc3[n+]2[O-])cc1 | inactive |
| CC(=O)Nc1cccc(Nc2nc(-c3cccs3)nc3ccccc23)c1 | 8.2 µM (active) |
| CC1(C(=O)NS(=O)(=O)c2cccc(F)c2)CCN1C(=O)Cc1ccc(Cl)cc1Cl (centres undefined) | inactive |
| Cc1ccc(S(=O)(=O)N(Cc2cccc([N+](=O)[O-])c2)C(=O)N2CCN(C)CC2)cc1 | inactive |
| COc1ccc(Cl)cc1-n1c(=S)sc2c(=O)n(-c3ccc(F)cc3)c(SCC(=O)O)nc21 | inactive |
| COc1ccc(-c2nc3n(c(=O)c2C#N)CCS3)c(OC)c1 | inactive |
| CC(C)CC1C(=O)N(Cc2cn(Cc3ccco3)nn2)CCS(=O)(=O)N1Cc1ccc(-c2ccc(Cl)c(Cl)c2)cc1 (centres undefined) | 20.6 µM (active) |
| COc1ccc(C(=O)NCC2CCCCC2)cc1S(=O)(=O)N1CCCC1 | inactive |
| CN=C(c1ccccc1)c1c(C)cccc1C | inactive |
| COc1ccc(S(=O)(=O)N2CCOCC2)cc1NC(=O)COc1ccccc1 | inactive |
| Cc1nnc(NC(=O)CCC(=O)N2CCC(C)CC2)s1 | inactive |
| CC1(C)C2CCC1(CS(=O)(=O)NCCc1c[nH]c3ccccc13)C(=O)C2 (centres undefined) | inactive |
| CC1C(=O)N(Cc2cn(Cc3ccco3)nn2)CCS(=O)(=O)N1Cc1ccc(-c2cccc(CO)c2)cc1 (centres undefined) | 9.2 µM (active) |
| COC(=O)c1cc(-c2cccs2)nc2ccccc12 | inactive |
| COC(=O)COc1cccc2c(=O)n(CC(=O)NCc3ccccc3)ccc12 | 2.06 µM (active) |
| CSCCC(NC(=O)c1ccco1)C(=O)NCCc1ccc(F)cc1 (centres undefined) | inactive |
| COc1ccccc1Cn1c(C)nnc1-c1cnn(C)c1N | inactive |
| C=C(C)CNc1cc(S(=O)(=O)N2CCOCC2)ccc1Oc1ccccc1 | 20.6 µM (active) |
| CCc1cccc(C)c1NC(=O)COC(=O)Cc1ccsc1 | inactive |
| CC(C)C[C@H](NC(=O)N1CCn2c1nc1ccccc12)C(=O)NC1CC1 | inactive |
| CC(C)Sc1nc(N)nc2c1ncn2C1OC(CO)C(O)C1O (centres undefined) | inactive |
| Cn1cc[n+](C)c1COc1ccc(C=O)cc1 | inactive |
| CCCCSc1nnc2c(n1)OC=Nc1ccccc1-2 | inactive |
| COc1cc(S(=O)(=O)N2CCN(C(=O)C3CC3)CC2)ccc1NC(C)=O | inactive |
| CCOC(=O)Cn1c(O)c(N=NC(=O)CNC(=O)Cc2ccccc2)c2ccccc21 | inactive |
| Cc1cc(C(=O)NNS(=O)(=O)c2ccccc2C(F)(F)F)nn1C(C)(C)C | inactive |
| Cc1nn(C)cc1C(=O)Nc1ccccc1Br | inactive |
| COc1ccc(S(=O)(=O)N2CCCCC2)cc1Br | inactive |
| COc1ccc(NC(=O)CC2C(=O)OCC3CCCCN32)cc1Cl (centres undefined) | inactive |
| Cc1cccc(NC(=O)CSc2nc3c(c(=O)[nH]2)CCC3)c1C | inactive |
| CCOCCn1ccc2c(OCC(=O)NCc3ccc(C)cc3)cccc2c1=O | inactive |
| CCC(C(=O)NC1CCCC1)N(C(=O)Cn1nnc(-c2ccc(C)o2)n1)c1ccc(OC)c(OC)c1 (centres undefined) | inactive |
| CCOC(=O)c1c(C)[nH]c(C)c1C(=O)CSc1nc(N)cc(N)n1 | inactive |
| COC(=O)c1cc(OC)c(OC)cc1NC(=O)C1CCCO1 (centres undefined) | inactive |
| Cc1ccc(N(CC(=O)Nc2cc(C)cc(C)c2)S(=O)(=O)c2cccc3nonc23)cc1 | inactive |
| OC[C@@H]1O[C@H](n2cnc3c(SCc4ccccc4)ncnc32)[C@H](O)[C@H]1O | 11.2 µM (active) |
| Nc1nc(SCc2ccc([N+](=O)[O-])cc2)c2ncn(C3OC(CO)C(O)C3O)c2n1 (centres undefined) | inactive |
| CCCCN(CC)CCCNC(=O)c1nn(C)c2c1CS(=O)(=O)c1ccccc1-2 | inactive |
